Run Description: Inhibition of Mycobacterium tuberculosis T6PP using T6P as substrate by Lineweaver-Burk plot analysis
pKi: −log10 of the molar value.
Observable: pKi

Problem: Give the measured pKi of CCCCCCCCc1ccc(O[C@@H]2O[C@H](COS(=O)(=O)O)[C@@H](O)[C@H](O)[C@H]2O)cc1 .
Solution: < 3.52

Problem: Proceed to CCCCCCc1ccc(O[C@H]2O[C@H](COS(=O)(=O)O)[C@@H](O)[C@H](O)[C@H]2O)cc1
Solution: < 3.40

Problem: Proceed to CCCCCCc1ccc(O[C@@H]2O[C@H](COS(=O)(=O)O)[C@@H](O)[C@H](O)[C@H]2O)cc1
Solution: < 3.40

====

Tested on: Mycobacterium tuberculosis
Run Description: Inhibition of Mycobacterium tuberculosis T6PP using T6P as substrate assessed as fraction of enzyme unbound with compound by measuring ratio of initial velocities of T6P substrate hydrolysis in presence and absence of compound at 1 mM after 5 mins by BioMol green dye based HTS assay
Ratio below 0.9 gives not met; Ratio at or above it gives met.

Problem: Determine whether this molecule has Ratio no lower than 0.9: Nc1ccc(O[C@@H]2O[C@H](COS(=O)(=O)O)[C@@H](O)[C@H](O)[C@H]2O)cc1
Solution: met

Problem: Proceed to O=S(=O)(O)OC[C@H]1O[C@@H](Oc2ccccc2)[C@H](O)[C@@H](O)[C@@H]1O
Solution: met

Problem: Proceed to O=S(=O)(O)OC[C@H]1O[C@@H](n2cc(-c3ccccc3)nn2)[C@H](O)[C@@H](O)[C@@H]1O
Solution: met

Problem: Proceed to CO[C@H]1O[C@H](COS(=O)(=O)O)[C@@H](O)[C@H](O)[C@H]1OCc1ccccc1
Solution: met

Problem: Proceed to O=Cc1cccc(O[C@@H]2O[C@H](COS(=O)(=O)O)[C@@H](O)[C@H](O)[C@H]2O)c1
Solution: not met
